B1: tRNA (parent)
chain: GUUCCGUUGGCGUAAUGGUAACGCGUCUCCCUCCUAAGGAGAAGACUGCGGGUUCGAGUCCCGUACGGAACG

# Variants of: B1
# procedure-summary: yeast fitness relative to wild type (ratio to wild type); higher = fitter; tRNA-Arg(CCU), competitive growth, 37 C, YPD
Variants at the floor of the assay were thinned out.
Could you label it met if measured yeast fitness is 0.7 or higher, and not met otherwise?

Query: Hi, just wondering whether U8A C24G G41C A65G shows yeast fitness of 0.7 or higher.
Reply: not met
